Target: KHK-C (Homo sapiens (Human))
Sequence (P50053 whole entry): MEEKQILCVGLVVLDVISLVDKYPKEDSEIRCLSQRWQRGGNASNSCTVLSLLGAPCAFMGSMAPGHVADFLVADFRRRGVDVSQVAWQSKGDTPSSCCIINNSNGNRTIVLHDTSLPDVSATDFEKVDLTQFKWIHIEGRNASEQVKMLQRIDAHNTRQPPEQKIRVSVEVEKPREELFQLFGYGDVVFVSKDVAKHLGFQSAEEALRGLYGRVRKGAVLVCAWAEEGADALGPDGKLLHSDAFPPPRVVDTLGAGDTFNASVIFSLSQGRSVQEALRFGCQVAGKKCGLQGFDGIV
Test: 3-step coupled-enzyme KHK assay (KHK, PK, LDH; NADH disappearance)
Format: biochemical
Settings: recombinant KHK-C, 1 mM fructose, A340 at 37° C.
Method: Specific high-throughput screening assays were developed for KHK-C and KHK-A using recombinant proteins. Purified human recombinant KHK-C and KHK-A were produced using the Bio-Rad Profinity eXact Fusion-Tag System and Profinia protein purification instrument. The assays consist of a 3-step, coupled-enzyme process involving fructokinase (KHK), pyruvate kinase (PK) and lactate dehydrogenase (LDH). ^1,2 The disappearance of NADH is measured kinetically by A340 at 37° C. […]
pIC50: −log10 of the molar value.
REPORTED_ENDPOINT: pIC50

Here's what some known entries look like.
{"MOLECULE": "Cc1cccc(-n2ncc3ccc(-c4ccnc(N)c4)cc32)c1", "pIC50": 6.55}
{"MOLECULE": "Cc1cccc(-n2ncc3ccc(C(=O)NC4CCNCC4)cc32)c1", "pIC50": 6.10}
{"MOLECULE": "O=C(NC1CCNCC1)c1ccc2cnn(-c3ccccc3)c2c1", "pIC50": 5.64}

1 = Nc1cc(-c2ccc3c(C4CC4)nn(-c4ccccc4)c3c2)ccn1
2 = Cc1cccc(-n2ncc3ccc(NC(=O)C4CCN4)cc32)c1 (centres unmarked)
Exercise: // task: argmin of pIC50 over [ 1 , 2 ] Select an item and report its label.
Key: 2

a = O=C(NC1CNC1)c1ccc2cnn(-c3ccccc3)c2c1
b = Cc1cccc(-n2ncc3ccc(C(=O)NC4CNC4)cc32)c1
Exercise: Of a and b , which shows the smaller pIC50 value? Answer format: the label of the selected item.
Key: b
